kon for assorted binders
biological target: SARS-CoV-2 S-2P protein (SARS-CoV-2, ancestral (Wuhan-Hu-1) …, UniProt P0DTC2, stabilised); assay: BLI; settings: both partners purified
Report the value in M⁻¹ s⁻¹ with no unit label.

Example entries begin here.
{"columns": ["BINDER", "REPORTED_VALUE"],
 "data": [
  ["eCC65.1-4 (antibody, V domains shown) VH: VQLVQSGAEVKKPGASVKVSCKASGYTFESQYMHWVRQAPGQGLEWMGIIDPKGGGTSYAQKFRDRVSMTRDTPTSTVYMELRSLRSEDTAVYYCASLWFETPSWRDYWGQGTLVTVSS VL: VMTQSPGTLSLSPGERATLSCRASQTVNKNYLAWYQQKPGQAPRLLIYGASSRATGIPDRFSGSGSGTDFTLTISRLEPEDFAVYYCQTYGSSPPLFTFGPGTKLEIK", 287000],
  ["eCC65.1-3 (antibody, V domains shown) VH: VQLVQSGAEVKKPGASVKVSCKASGYTFTSQYMHWVRQAPGQGLEWMGIIDPEGGGTSYAQKFRDRVSMTRDTPTSTVYMELRSLRSEDTAVYYCASLWFEQPSWRDYWGQGTLVTVSS VL: VMTQSPGTLSLSPGERATLSCRASQTVNKNYLAWYQQKPGQAPRLLIYHASSRATGIPDRFSGSGSGTDFTLTISRLEPEDFAVYYCQQYGASPPLFTFGPGTKLEIK", 289000],
  ["eCC65.1-5 (antibody, V domains shown) VH: VQLVQSGAEVKKPGASVKVSCKATGYTFTSQYMHWVRQAPGQGLEWMGIIDPSGGGTSYAQKFRDRVSMTRDTPTSTVYMELRSLRSEDTAVYYCASIWFENPSWRDYWGQGTLVTVSS VL: VMTQSPGTLSLSPGERATLSCRASQTVNKNYLAWYQQKPGQAPRLLIYGASSRATGIPDRFSGSGSGTDFTLTISRLEPEDFAVYYCQQYGSSPPLFTFGPGTKLEIK", 286000],
  ["eCC65.1-1 (antibody, V domains shown) VH: VQLVQSGAEVKKPGASVKVSCKASGYEFTSQYMHWVRQAPGQGLEWMGIIDPSGGGASYAQKFRDRVSMTRDTPTSTVYMELRSLRSEDTAVYYCASLWFGNPSWRDYWGQGTLVTVSS VL: VMTQSPGTLSLSPGERATLSCRASQTVNSNYLAWYQQKPGQAPRLLIYHASSRATGIPDRFSGSGSGTDFTLTISRLEPEDFAVYYCQQYGASPPLFTFGPGTKLEIK", 236000],
  ["eCC65.1-8 (antibody, V domains shown) VH: VQLVQSGAEVKKPGASVKVSCKASGYEFTSQYMHWVRQAPGQGLEWMGIIDPSGGGASYAQKFRDRVSMTRDTPTSTVYMELRSLRSEDTAVYYCASLWFGNPSWRDYWGQGTLVTVSS VL: VMTQSPGTLSLSPGERATLSCRASQTVNSNYLAWYQQKPGQAPRLLIYHASSRATGIPDRFSGSGSGTDFTLTISRLEPEDFAVYYCQQYQSSPPLFTFGPGTKLEIK", 258000],
  ["eCC65.1-13 (antibody, V domains shown) VH: EVQLVQSGAEVKKPGASVKVSCKASGYTFTSQYMHWVRQAPGQGLEWMGIIDPSGGGTSYAQKFRDRVSMTRDTPTSTVYMELRSLRSEDTAVYYCASLWFENPSWRDYWGQGTLVTVSS VL: VMTQSPGTLSLSPGERATLSCRASQTVNKNYLAWYQQKPGQAPRLLIYGASSRATGIPDRFSGSGSGTDFTLTISRLEPEDFAVYYCQQYGASPPLFTFGPGTKLEIK", 256000],
  ["eCC65.1-12 (antibody, V domains shown) VH: EVQLVQSGAEVKKPGASVKVSCKASGYTFTSQYMHWVRQAPGQGLEWMGIIDPSGGGTSYAQKFRDRVSMTRDTPTSTVYMELRSLRSEDTAVYYCASLWFENPSWRDYWGQGTLVTVSS VL: DVVMTQSPGTLSLSPGERATLSCRASQTVNKNYLAWYQQKPGQAPRLLIYHASSRATGIPDRFSGSGSGTDFTLTISRLEPEDFAVYYCQQYGASPPLFTFGPGTKLEIK", 273000],
  ["eCC65.1-2 (antibody, V domains shown) VH: VQLVQSGAEVKKPGASVKVSCKATGYTFTSQYMHWVRQAPGQGLEWMGIIDPKGGGTSYAQKFRDRVSMTRDTPTSTVYMELRSLRSEDTAVYYCASLWFENPSWTDYWGQGTLVTVSS VL: VMTQSPGTLSLSPGERATLSCRASQTVNKNYLAWYQQKPGQAPRLLIYHASSRATGIPDRFSGSGSGTDFTLTISRLEPEDFAVYYCQQYGSSPPLFTFGPGTKLEIK", 283000],
  ["eCC65.1-10 (antibody, V domains shown) VH: VQLVQSGAEVKKPGASVKVSCKASGYDFTSQYMHWVRQAPGQGLEWMGIIDPSGGGTSYAQKFRDRVSMTRDTPTSTVYMELRSLRSEDTAVYYCASLWFENPSWSDYWGQGTLVTVSS VL: VMTQSPGTLSLSPGERATLSCRASQTVNKNYLAWYQQKPGQAPRLLIYHASSRATGIPDRFSGSGSGTDFTLTISRLEPEDFAVYYCQQYGASPPLFTFGPGTKLEIK", 278000]
]}

Turning now to a further binder:
Consider the binder shown here: eCC65.1-11 (antibody, V domains shown) VH: VQLVQSGAEVKKPGASVKVSCKASGYEFTSQYMHWVRQAPGQGLEWMGIIDPSGGGASYAQKFRDRVSMTRDTPTSTVYMELRSLRSEDTAVYYCASLWFGNPSWRDYWGQGTLVTVSS VL: VMTQSPGTLSLSPGERATLSCRASSTVNSNYLAWYQQKPGQAPRLLIYHASSRATGIPDRFSGSGSGTDFTLTISRLEPEDFAVYYCQQYGASPPLFTFGPGTKLEIK What is its recorded kon? 249000

Source of measurements: paper PMC13480645
